Measured pEC50 accompanies every entry in the list below.
- Assayed Target: T1, recombinant human VISTA (His-tagged) (human, UniProt Q9H7M9 33-194)
- T1 construct: bought soluble protein (Sino Biological); also called hVISTA; human VISTA polypeptide
- Protocol: ELISA, plate coated with human VISTA; unit nM from the legend paragraph 697
Here pEC50 is given on a logarithmic scale as minus log10 of the concentration in mol/L.

Binder: anti-VISTA clone V4-C28 IgG1 (antibody, V domains shown) VH: QVQLQESGPGLVKPSDTLSLTCTVSGYSITSDYTWNWIRQTPGKGLEWIGHITYSGSVSYNPSLRSRVTISRDTSKNQFSLKLSSVTAADTATYSCARALYYPWYFDVWGTGTTVTVSS VL: EIVLTQSPATLSLSPGERATLSCRASSSVGYIHWYQQKPGQAPRPLIYATSYRATGIPARFSGSGSGTDNTLTISSLEPEDSAVYYCQQWSSYPPITFGGGTKLEVKR
pEC50: 11.82
//
Binder: anti-VISTA clone V4-C1 IgG1 (antibody, V domains shown) VH: QVQLQESGPGLVKPSDTLSLTCTVSGYSITSDYAWNWIRQTPGKGLEWIGYITYSGYISYNPSLRSRVTISRDTSKNQFSLKLSSVTAADTAVYSCARALYYPWYFDVWGTGTTVTVSS VL: EIVITQSPATLSLSPGERATLSCRASSSVGYIHWYQQKPGQAPRPLIYATSNRATGIPARFSGSGSGTDNTLTISSLEPEDSAVYYCQQWSSYPPITFGGGTKLEVKR
pEC50: 11.62

Quick note, pEC50 for anti-VISTA clone V4-C31 IgG1 (antibody, V domains shown) VH: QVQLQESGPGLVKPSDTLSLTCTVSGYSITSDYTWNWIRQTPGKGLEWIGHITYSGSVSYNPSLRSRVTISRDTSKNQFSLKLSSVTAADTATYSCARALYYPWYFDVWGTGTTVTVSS VL: EIVLTQSPATLSLSPGERATLSCRASSSVGYIHWYQQKPGQAPRPLIYATYYRTTGIPARFSGSGSGTDNTLTISSLEPEDSAVYYCQQWSSYPPITFGGGTKLEVKR landed at 11.49

Measured values drawn from patent US20250313631A1 for this set.
